test: in vivo; design: species or system SD rats; conditions: rat, po, 15 mg/kg
Tmax for assorted compounds
# number only, unit min dropped from output

Input: Any idea what Tmax was measured for COC(=O)c1ccc(OCCn2ccnc2)c(OC)c1 [Compound A methyl ester, reference compound] ?
Output: 27.6

Input: COc1cc(C(=O)OC(C)OC(C)=O)ccc1OCCn1ccnc1 (centres unmarked) , same question.
Output: 15

Input: COc1cc(C(=O)O)ccc1OCCn1ccnc1 [Compound A, reference compound] , same question.
Output: 21

Input: COc1cc(C(=O)OCCCCCC(=O)O)ccc1OCCn1ccnc1 , same question.
Output: 15

Input: COc1cc(C(=O)OCOC(=O)OC(C)C)ccc1OCCn1ccnc1 , same question.
Output: 15
